- experimental.target: T1, ADAAD R595K (Bos taurus (bovine), UniProt Q9TTA5 221-940, R815K)
- T1 sequence: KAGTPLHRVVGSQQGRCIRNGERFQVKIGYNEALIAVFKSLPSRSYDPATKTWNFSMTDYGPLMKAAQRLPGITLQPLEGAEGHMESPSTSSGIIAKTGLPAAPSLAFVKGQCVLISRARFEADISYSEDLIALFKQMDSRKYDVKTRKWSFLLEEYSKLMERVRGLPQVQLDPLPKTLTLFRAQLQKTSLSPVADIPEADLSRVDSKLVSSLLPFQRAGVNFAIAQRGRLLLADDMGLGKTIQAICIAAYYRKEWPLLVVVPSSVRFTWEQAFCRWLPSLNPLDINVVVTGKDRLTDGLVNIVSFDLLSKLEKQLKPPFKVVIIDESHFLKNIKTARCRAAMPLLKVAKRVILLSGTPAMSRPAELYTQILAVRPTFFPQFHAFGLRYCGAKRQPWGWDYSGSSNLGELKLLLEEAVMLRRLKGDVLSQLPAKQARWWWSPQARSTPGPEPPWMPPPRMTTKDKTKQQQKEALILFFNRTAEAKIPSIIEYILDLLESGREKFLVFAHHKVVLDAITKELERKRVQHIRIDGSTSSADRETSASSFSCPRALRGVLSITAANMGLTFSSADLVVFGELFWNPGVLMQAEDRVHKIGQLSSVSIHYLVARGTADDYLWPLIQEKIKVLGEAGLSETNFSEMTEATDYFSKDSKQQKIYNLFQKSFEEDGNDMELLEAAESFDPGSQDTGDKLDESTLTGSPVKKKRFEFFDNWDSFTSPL
- assay.method.text: intrinsic tryptophan fluorescence titration; no ATP; Fluorescence titration (ex 295 nm, em 340 nm), one-site saturation fit; buffer, salt, pH and temperature not given in the material. Wild-type ADAAD Kd values are cited from ref 24 and not listed
- measurement.context: protein: recombinant; tags: His (Ni-NTA, pET-14b); hairpin
pKd: −log10 of the molar value.

# binder, pKd
measured = [
    ("GCGCAATTGCGCTCGACGATTTTTTAGCGCAATTGCGC (structured_DNA) [slDNA (stem-loop DNA)]", 7.60),
]

Data origin: paper PMC6019379
